# log10 of Ki measurements, system: Poly [ADP-ribose] polymerase 1 (Homo sapiens, UniProt P09874)
# Sequence (P09874 whole entry): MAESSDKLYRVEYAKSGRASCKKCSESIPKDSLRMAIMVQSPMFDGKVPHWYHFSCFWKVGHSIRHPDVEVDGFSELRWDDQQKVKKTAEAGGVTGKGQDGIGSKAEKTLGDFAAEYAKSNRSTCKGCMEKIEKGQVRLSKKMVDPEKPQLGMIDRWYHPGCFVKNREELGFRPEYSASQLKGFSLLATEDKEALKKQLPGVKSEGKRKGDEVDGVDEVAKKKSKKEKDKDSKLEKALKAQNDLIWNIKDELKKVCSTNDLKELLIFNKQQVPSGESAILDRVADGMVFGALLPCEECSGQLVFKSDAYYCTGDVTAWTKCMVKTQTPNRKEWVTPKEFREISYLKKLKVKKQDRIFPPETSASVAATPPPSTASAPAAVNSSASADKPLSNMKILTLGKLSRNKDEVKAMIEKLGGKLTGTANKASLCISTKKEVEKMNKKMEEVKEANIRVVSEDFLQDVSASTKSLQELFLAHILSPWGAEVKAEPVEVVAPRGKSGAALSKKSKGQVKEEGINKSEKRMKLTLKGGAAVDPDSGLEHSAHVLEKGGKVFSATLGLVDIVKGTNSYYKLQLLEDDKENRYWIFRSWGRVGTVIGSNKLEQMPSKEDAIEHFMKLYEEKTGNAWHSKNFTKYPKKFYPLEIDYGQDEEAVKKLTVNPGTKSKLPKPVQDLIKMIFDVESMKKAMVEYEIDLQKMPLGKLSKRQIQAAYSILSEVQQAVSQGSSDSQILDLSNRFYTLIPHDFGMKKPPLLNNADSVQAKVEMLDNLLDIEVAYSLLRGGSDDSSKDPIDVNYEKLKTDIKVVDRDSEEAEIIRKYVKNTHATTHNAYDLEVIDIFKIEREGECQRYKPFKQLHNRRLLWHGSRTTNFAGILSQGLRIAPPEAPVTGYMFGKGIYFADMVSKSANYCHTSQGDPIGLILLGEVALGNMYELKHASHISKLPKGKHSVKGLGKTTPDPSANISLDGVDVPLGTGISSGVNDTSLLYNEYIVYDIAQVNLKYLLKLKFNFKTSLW
Parameter value (number): base-10 log of Ki in nM.

CC(C)NC(C)c1nc2c(C(N)=O)cccc2[nH]1 (stereo not drawn)
1.08

Which value of log10 of Ki has been reported for NC(=O)c1cccc2[nH]c(C3(N)CCc4ccccc4C3)nc12 (stereo not drawn) in the records?
1.26

Here is the next molecule: CNC(C)(C)c1nc2cccc(C(N)=O)c2[nH]1
0.60

Here is the next molecule: CN(C)C(C)(C)c1nc2cccc(C(N)=O)c2[nH]1
0.95

Here is the next molecule: CC(CCNC1CCCC1)c1nc2c(C(N)=O)cccc2[nH]1 (stereo not drawn)
1.65

Here is the next molecule: CCCNC(C)(C)c1nc2c(C(N)=O)cccc2[nH]1
1.00

Here is the next molecule: NC(=O)c1cccc2[nH]c(C3(N)CCC3)nc12
1.40

Here is the next molecule: CC(NS(=O)(=O)N(C)C)c1nc2c(C(N)=O)cccc2[nH]1 (stereo not drawn)
2.15

Provenance of the data: ChEMBL document CHEMBL1155103
